Below: a set of entries, each annotated with reported COUNTS of radiolabeled gp120 retained.
Target: HIV-1LAI envelope gp120 (Human immunodeficiency virus type 1 group M subtype B)
Format: binding
Details: Panel E, 9-mers and 12-mers of CD4; empty control 571
OBSERVABLE: COUNTS of radiolabeled gp120 retained (counts)

[[record]]
sequence_record = "VEFKIDIVV"
tested_system = "HIV-1LAI envelope gp120 (Human immunodeficiency virus type 1 group M subtype B)"
observable = "COUNTS of radiolabeled gp120 retained"
value = 548

[[record]]
sequence_record = "YKKEGEQVE"
tested_system = "HIV-1LAI envelope gp120 (Human immunodeficiency virus type 1 group M subtype B)"
observable = "COUNTS of radiolabeled gp120 retained"
value = 518

[[record]]
sequence_record = "LAFTVEKLT"
tested_system = "HIV-1LAI envelope gp120 (Human immunodeficiency virus type 1 group M subtype B)"
observable = "COUNTS of radiolabeled gp120 retained"
value = 501

[[record]]
sequence_record = "AFQKASSIVYKK"
tested_system = "HIV-1LAI envelope gp120 (Human immunodeficiency virus type 1 group M subtype B)"
observable = "COUNTS of radiolabeled gp120 retained"
value = 597

[[record]]
sequence_record = "LQNQKKVEFKID"
tested_system = "HIV-1LAI envelope gp120 (Human immunodeficiency virus type 1 group M subtype B)"
observable = "COUNTS of radiolabeled gp120 retained"
value = 508

[[record]]
sequence_record = "VYKKEGEQV"
tested_system = "HIV-1LAI envelope gp120 (Human immunodeficiency virus type 1 group M subtype B)"
observable = "COUNTS of radiolabeled gp120 retained"
value = 490

[[record]]
sequence_record = "FSFPLAFTV"
tested_system = "HIV-1LAI envelope gp120 (Human immunodeficiency virus type 1 group M subtype B)"
observable = "COUNTS of radiolabeled gp120 retained"
value = 472

[[record]]
sequence_record = "KEGEQVEFSFPL"
tested_system = "HIV-1LAI envelope gp120 (Human immunodeficiency virus type 1 group M subtype B)"
observable = "COUNTS of radiolabeled gp120 retained"
value = 710

[[record]]
sequence_record = "SIVYKKEGE"
tested_system = "HIV-1LAI envelope gp120 (Human immunodeficiency virus type 1 group M subtype B)"
observable = "COUNTS of radiolabeled gp120 retained"
value = 566

[[record]]
sequence_record = "EKLTGSGELWWQ"
tested_system = "HIV-1LAI envelope gp120 (Human immunodeficiency virus type 1 group M subtype B)"
observable = "COUNTS of radiolabeled gp120 retained"
value = 543

[[record]]
sequence_record = "SSIVYKKEGEQV"
tested_system = "HIV-1LAI envelope gp120 (Human immunodeficiency virus type 1 group M subtype B)"
observable = "COUNTS of radiolabeled gp120 retained"
value = 615

[[record]]
sequence_record = "QKKVEFKIDIVV"
tested_system = "HIV-1LAI envelope gp120 (Human immunodeficiency virus type 1 group M subtype B)"
observable = "COUNTS of radiolabeled gp120 retained"
value = 595

[[record]]
sequence_record = "FTVEKLTGS"
tested_system = "HIV-1LAI envelope gp120 (Human immunodeficiency virus type 1 group M subtype B)"
observable = "COUNTS of radiolabeled gp120 retained"
value = 574

[[record]]
sequence_record = "AFQKASSIV"
tested_system = "HIV-1LAI envelope gp120 (Human immunodeficiency virus type 1 group M subtype B)"
observable = "COUNTS of radiolabeled gp120 retained"
value = 595

[[record]]
sequence_record = "EQVEFSFPLAFT"
tested_system = "HIV-1LAI envelope gp120 (Human immunodeficiency virus type 1 group M subtype B)"
observable = "COUNTS of radiolabeled gp120 retained"
value = 1556

[[record]]
sequence_record = "FSFPLAFTVEKL"
tested_system = "HIV-1LAI envelope gp120 (Human immunodeficiency virus type 1 group M subtype B)"
observable = "COUNTS of radiolabeled gp120 retained"
value = 573

[[record]]
sequence_record = "EGEQVEFSFPLA"
tested_system = "HIV-1LAI envelope gp120 (Human immunodeficiency virus type 1 group M subtype B)"
observable = "COUNTS of radiolabeled gp120 retained"
value = 1456

[[record]]
sequence_record = "TVLQNQKKV"
tested_system = "HIV-1LAI envelope gp120 (Human immunodeficiency virus type 1 group M subtype B)"
observable = "COUNTS of radiolabeled gp120 retained"
value = 534

[[record]]
sequence_record = "LAFQKASSIVYK"
tested_system = "HIV-1LAI envelope gp120 (Human immunodeficiency virus type 1 group M subtype B)"
observable = "COUNTS of radiolabeled gp120 retained"
value = 465

[[record]]
sequence_record = "KKEGEQVEF"
tested_system = "HIV-1LAI envelope gp120 (Human immunodeficiency virus type 1 group M subtype B)"
observable = "COUNTS of radiolabeled gp120 retained"
value = 546

[[record]]
sequence_record = "FKIDIVVLAFQK"
tested_system = "HIV-1LAI envelope gp120 (Human immunodeficiency virus type 1 group M subtype B)"
observable = "COUNTS of radiolabeled gp120 retained"
value = 736

[[record]]
sequence_record = "PLAFTVEKL"
tested_system = "HIV-1LAI envelope gp120 (Human immunodeficiency virus type 1 group M subtype B)"
observable = "COUNTS of radiolabeled gp120 retained"
value = 597

[[record]]
sequence_record = "SIVYKKEGEQVE"
tested_system = "HIV-1LAI envelope gp120 (Human immunodeficiency virus type 1 group M subtype B)"
observable = "COUNTS of radiolabeled gp120 retained"
value = 543

[[record]]
sequence_record = "FTVEKLTGSGEL"
tested_system = "HIV-1LAI envelope gp120 (Human immunodeficiency virus type 1 group M subtype B)"
observable = "COUNTS of radiolabeled gp120 retained"
value = 530

[[record]]
sequence_record = "SFPLAFTVE"
tested_system = "HIV-1LAI envelope gp120 (Human immunodeficiency virus type 1 group M subtype B)"
observable = "COUNTS of radiolabeled gp120 retained"
value = 619

[[record]]
sequence_record = "EFKIDIVVLAFQ"
tested_system = "HIV-1LAI envelope gp120 (Human immunodeficiency virus type 1 group M subtype B)"
observable = "COUNTS of radiolabeled gp120 retained"
value = 659

[[record]]
sequence_record = "QNQKKVEFKIDI"
tested_system = "HIV-1LAI envelope gp120 (Human immunodeficiency virus type 1 group M subtype B)"
observable = "COUNTS of radiolabeled gp120 retained"
value = 559

[[record]]
sequence_record = "SFPLAFTVEKLT"
tested_system = "HIV-1LAI envelope gp120 (Human immunodeficiency virus type 1 group M subtype B)"
observable = "COUNTS of radiolabeled gp120 retained"
value = 528

[[record]]
sequence_record = "QVEFSFPLAFTV"
tested_system = "HIV-1LAI envelope gp120 (Human immunodeficiency virus type 1 group M subtype B)"
observable = "COUNTS of radiolabeled gp120 retained"
value = 1636

[[record]]
sequence_record = "KKVEFKIDI"
tested_system = "HIV-1LAI envelope gp120 (Human immunodeficiency virus type 1 group M subtype B)"
observable = "COUNTS of radiolabeled gp120 retained"
value = 501

[[record]]
sequence_record = "KVEFKIDIVVLA"
tested_system = "HIV-1LAI envelope gp120 (Human immunodeficiency virus type 1 group M subtype B)"
observable = "COUNTS of radiolabeled gp120 retained"
value = 560

[[record]]
sequence_record = "DIVVLAFQK"
tested_system = "HIV-1LAI envelope gp120 (Human immunodeficiency virus type 1 group M subtype B)"
observable = "COUNTS of radiolabeled gp120 retained"
value = 686

[[record]]
sequence_record = "LAFQKASSI"
tested_system = "HIV-1LAI envelope gp120 (Human immunodeficiency virus type 1 group M subtype B)"
observable = "COUNTS of radiolabeled gp120 retained"
value = 592

[[record]]
sequence_record = "NQKKVEFKIDIV"
tested_system = "HIV-1LAI envelope gp120 (Human immunodeficiency virus type 1 group M subtype B)"
observable = "COUNTS of radiolabeled gp120 retained"
value = 532

[[record]]
sequence_record = "YKKEGEQVEFSF"
tested_system = "HIV-1LAI envelope gp120 (Human immunodeficiency virus type 1 group M subtype B)"
observable = "COUNTS of radiolabeled gp120 retained"
value = 548

[[record]]
sequence_record = "QNQKKVEFK"
tested_system = "HIV-1LAI envelope gp120 (Human immunodeficiency virus type 1 group M subtype B)"
observable = "COUNTS of radiolabeled gp120 retained"
value = 537

[[record]]
sequence_record = "EFSFPLAFT"
tested_system = "HIV-1LAI envelope gp120 (Human immunodeficiency virus type 1 group M subtype B)"
observable = "COUNTS of radiolabeled gp120 retained"
value = 658

[[record]]
sequence_record = "IVYKKEGEQVEF"
tested_system = "HIV-1LAI envelope gp120 (Human immunodeficiency virus type 1 group M subtype B)"
observable = "COUNTS of radiolabeled gp120 retained"
value = 533

[[record]]
sequence_record = "VEKLTGSGE"
tested_system = "HIV-1LAI envelope gp120 (Human immunodeficiency virus type 1 group M subtype B)"
observable = "COUNTS of radiolabeled gp120 retained"
value = 585

[[record]]
sequence_record = "VEKLTGSGELWW"
tested_system = "HIV-1LAI envelope gp120 (Human immunodeficiency virus type 1 group M subtype B)"
observable = "COUNTS of radiolabeled gp120 retained"
value = 477

[[record]]
sequence_record = "TGSGELWWQ"
tested_system = "HIV-1LAI envelope gp120 (Human immunodeficiency virus type 1 group M subtype B)"
observable = "COUNTS of radiolabeled gp120 retained"
value = 507

[[record]]
sequence_record = "FQKASSIVYKKE"
tested_system = "HIV-1LAI envelope gp120 (Human immunodeficiency virus type 1 group M subtype B)"
observable = "COUNTS of radiolabeled gp120 retained"
value = 577

[[record]]
sequence_record = "EKLTGSGEL"
tested_system = "HIV-1LAI envelope gp120 (Human immunodeficiency virus type 1 group M subtype B)"
observable = "COUNTS of radiolabeled gp120 retained"
value = 541

